biological target: MINK1 (human); test: radiometric filter-binding kinase assay; conditions: compound 1.0 µM
residual activity strictly under 80% means true (1); at 80% or over means false (0).

These recorded examples may help you get a feel for the data.
>>> class_name("CCn1c(-c2nonc2N)nc2cncc(CNC3CCNCC3)c21")
"false (0)"
>>> class_name("Cc1ccc(Sc2cnc(Nc3cccc(Br)n3)s2)cc1C(=O)N1CCN(C(=O)CN)CC1")
"true (1)"
>>> class_name("CC1=C(CO)C(=O)O[C@@H]([C@@H](C)[C@H]2CC[C@H]3[C@@H]4C[C@H]5O[C@]56[C@@H](O)C=CC(=O)[C@]6(C)C4CC[C@]23C)C1 (stereo not given in full)")
"false (0)"

Shifting focus to the molecule that follows.
Lookup: Does CN(C)C/C=C/C(=O)Nc1cccc(C(=O)Nc2ccc(Nc3nccc(-c4cccnc4)n3)cc2)c1 have residual activity strictly under 80%?
Found: true (1)

Cited source: the kinase profiling compilation of Christmann-Franck et al. (2016)
